Target: Endothelin-1 receptor (Homo sapiens, UniProt P25101)
Sequence (P25101 whole entry): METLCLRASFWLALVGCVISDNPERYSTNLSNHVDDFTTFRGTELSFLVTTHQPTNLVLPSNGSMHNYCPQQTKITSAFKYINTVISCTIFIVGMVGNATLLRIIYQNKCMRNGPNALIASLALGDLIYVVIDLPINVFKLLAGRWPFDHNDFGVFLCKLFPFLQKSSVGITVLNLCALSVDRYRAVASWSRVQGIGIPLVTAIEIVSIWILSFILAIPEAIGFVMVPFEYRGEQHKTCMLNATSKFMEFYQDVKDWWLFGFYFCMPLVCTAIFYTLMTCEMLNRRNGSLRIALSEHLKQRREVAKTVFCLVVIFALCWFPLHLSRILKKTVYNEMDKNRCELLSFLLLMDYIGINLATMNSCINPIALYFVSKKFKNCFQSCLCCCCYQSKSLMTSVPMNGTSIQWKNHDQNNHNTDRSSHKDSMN
Test: Binding affinity towards human Endothelin A receptor (hET -A)
pIC50: −log10 of the molar value.
Criterion: pIC50 meeting or surpassing 7. Met: Y. Not met: N.

- compound: "COc1ccc([C@H]2[C@H](C(=O)O)[C@@H](c3ccc4c(c3)OCO4)CN2CC(=O)Nc2ccc(C)cc2C)cc1"
  tgt: "Endothelin-1 receptor (Homo sapiens, UniProt P25101)"
  group-label: "Y"

[in] Hi, just wondering whether CCc1cccc(C)c1NC(=O)CN1C[C@H](c2ccc3c(c2)OCO3)[C@@H](C(=O)O)[C@@H]1c1ccc(OC)cc1 shows pIC50 of 7 or higher.
[out] Y

[in] Try the compound CCc1cccc(CC)c1NC(=O)CN1C[C@H](c2ccc3c(c2)OCO3)[C@@H](C(=O)O)[C@@H]1c1ccc(OC)cc1 (stereo in doubt; 19)
[out] Y

[in] Try the compound CCc1cccc(CC)c1N(C)C(=O)CN1C[C@H](c2ccc3c(c2)OCO3)[C@@H](C(=O)O)[C@@H]1c1ccc(OC)cc1
[out] N

[in] Try the compound COc1ccc([C@H]2[C@H](C(=O)O)[C@@H](c3ccc4c(c3)OCO4)CN2CC(=O)Nc2c(C)cccc2C)cc1
[out] Y

---

experiment: Compound was evaluated for the biological half-life when administered through intravenous route; assay type: ADME, organism-based; conditions: in vivo
metric-name: half-life (h)
Write down the numeric answer in h and omit the unit.

Below, each entry is followed by its recorded half-life result.
- molecule: "CCc1cccc(CC)c1NC(=O)CN1C[C@H](c2ccc3c(c2)OCO3)[C@@H](C(=O)O)[C@@H]1c1ccc(OC)cc1 (stereo in doubt; 36)"
  recorded-result: 6.4
- molecule: "CCCOc1ccc([C@H]2[C@H](C(=O)O)[C@@H](c3ccc4c(c3)OCO4)CN2CC(=O)Nc2c(CC)cccc2CC)cc1 (stereo in doubt; 38)"
  recorded-result: 5
- molecule: "CCOc1ccc([C@H]2[C@H](C(=O)O)[C@@H](c3ccc4c(c3)OCO4)CN2CC(=O)Nc2c(CC)cccc2CC)cc1 (stereo in doubt; 37)"
  recorded-result: 3.1

Proceeding to the next molecule to report its half-life.
[in] Please look up its half-life: CCc1cccc(CC)c1NC(=O)CN1C[C@H](c2ccc3c(c2)OCO3)[C@@H](C(=O)O)[C@@H]1c1ccc(OCCOC)cc1 (stereo in doubt; 39)
[out] 2.6

---

target: Endothelin receptor, ET-A/ET-B (Homo sapiens) (UniProt P24530+P25101); assay: Ratio of binding affinity towards hETA to hETB; format: protein assay
metric-name: Ratio
A bare number is all that is needed in reply.

- compound: "CCc1cccc(CC)c1NC(=O)CN1C[C@H](c2ccc3c(c2)OCO3)[C@@H](C(=O)O)[C@@H]1c1ccc(OCCOC)cc1 (stereo in doubt; 34)"
  metric-name: "Ratio"
  recorded-result: 4000
- compound: "COc1ccc([C@H]2[C@H](C(=O)O)[C@@H](c3ccc4c(c3)OCO4)CN2CC(=O)Nc2c(OC)cccc2OC)cc1"
  metric-name: "Ratio"
  recorded-result: 0.3
- compound: "CCc1cc(CC)c(NC(=O)CN2C[C@H](c3ccc4c(c3)OCO4)[C@@H](C(=O)O)[C@@H]2c2ccc(OC)cc2)c(CC)c1"
  metric-name: "Ratio"
  recorded-result: 7
- compound: "CCc1cccc(CC)c1N(C)C(=O)CN1C[C@H](c2ccc3c(c2)OCO3)[C@@H](C(=O)O)[C@@H]1c1ccc(OC)cc1"
  metric-name: "Ratio"
  recorded-result: 0.3
- compound: "COc1ccc([C@H]2[C@H](C(=O)O)[C@@H](c3ccc4c(c3)OCO4)CN2CC(=O)Nc2c(C)cccc2C(C)C)cc1"
  metric-name: "Ratio"
  recorded-result: 5

[in] Please look up its Ratio: CCCOc1ccc([C@H]2[C@H](C(=O)O)[C@@H](c3ccc4c(c3)OCO4)CN2CC(=O)Nc2c(CC)cccc2CC)cc1 (stereo in doubt; 32)
[out] 820

[in] Try the compound COc1ccc([C@H]2[C@H](C(=O)O)[C@@H](c3ccc4c(c3)OCO4)CN2CC(=O)Nc2c(Br)cccc2Br)cc1
[out] 6

---

Parameter AUC: see the listing below.
assay: Compound was evaluated for area under curve when administered through oral route to rat; conditions: in vivo
Write down the numeric answer in ng·h/mL and omit the unit.

Below, each entry is followed by its recorded AUC result.
- compound: "CCCOc1ccc([C@H]2[C@H](C(=O)O)[C@@H](c3ccc4c(c3)OCO4)CN2CC(=O)Nc2c(CC)cccc2CC)cc1 (stereo in doubt; 38)"
  unit-of-measure: "ng·h/mL"
  AUC: 2500
- compound: "CCOc1ccc([C@H]2[C@H](C(=O)O)[C@@H](c3ccc4c(c3)OCO4)CN2CC(=O)Nc2c(CC)cccc2CC)cc1 (stereo in doubt; 37)"
  unit-of-measure: "ng·h/mL"
  AUC: 3400

Proceeding to the next compound to report its AUC.
[in] Please look up its AUC: CCc1cccc(CC)c1NC(=O)CN1C[C@H](c2ccc3c(c2)OCO3)[C@@H](C(=O)O)[C@@H]1c1ccc(OCCOC)cc1 (stereo in doubt; 39)
[out] 650

---

molecular target: Endothelin receptor, ET-A/ET-B (Homo sapiens) (UniProt P24530+P25101); assay: Ratio of binding affinity towards hETA to hETB; format: protein assay
metric-name: Ratio
A bare number is all that is needed in reply.

Below, each entry is followed by its recorded Ratio result.
- molecule: "COc1ccc([C@H]2[C@H](C(=O)O)[C@@H](c3ccc4c(c3)OCO4)CN2CC(=O)Nc2ccc(C)cc2C)cc1"
  recorded-result: 0.3
- molecule: "CCCc1cccc(CCC)c1NC(=O)CN1C[C@H](c2ccc3c(c2)OCO3)[C@@H](C(=O)O)[C@@H]1c1ccc(OC)cc1"
  recorded-result: 0.03
- molecule: "COc1ccc([C@H]2[C@H](C(=O)O)[C@@H](c3ccc4c(c3)OCO4)CN2CC(=O)Nc2c(C)cccc2C)cc1"
  recorded-result: 2
- molecule: "CCOc1ccc([C@H]2[C@H](C(=O)O)[C@@H](c3ccc4c(c3)OCO4)CN2CC(=O)Nc2c(CC)cccc2CC)cc1 (stereo in doubt; 31)"
  recorded-result: 250
- molecule: "COc1ccc([C@H]2[C@H](C(=O)O)[C@@H](c3ccc4c(c3)OCO4)CN2CC(=O)Nc2cccc(C)c2C)cc1"
  recorded-result: 0.2
- molecule: "COc1ccc([C@H]2[C@H](C(=O)O)[C@@H](c3ccc4c(c3)OCO4)CN2CC(=O)Nc2c(C(C)C)cccc2C(C)C)cc1"
  recorded-result: 35

[in] Please look up its Ratio: COc1ccc([C@H]2[C@H](C(=O)O)[C@@H](c3ccc4c(c3)OCO4)CN2CC(=O)Nc2cc(C)ccc2C)cc1
[out] 0.4

---

test: Oral bioavailability in rat; conditions: in vivo
metric-name: bioavailability (%)
Write down the numeric answer in % and omit the unit.

[in] Please look up its bioavailability: CCCOc1ccc([C@H]2[C@H](C(=O)O)[C@@H](c3ccc4c(c3)OCO4)CN2CC(=O)Nc2c(CC)cccc2CC)cc1 (stereo in doubt; 38)
[out] 35

---

Protein target, amino acids: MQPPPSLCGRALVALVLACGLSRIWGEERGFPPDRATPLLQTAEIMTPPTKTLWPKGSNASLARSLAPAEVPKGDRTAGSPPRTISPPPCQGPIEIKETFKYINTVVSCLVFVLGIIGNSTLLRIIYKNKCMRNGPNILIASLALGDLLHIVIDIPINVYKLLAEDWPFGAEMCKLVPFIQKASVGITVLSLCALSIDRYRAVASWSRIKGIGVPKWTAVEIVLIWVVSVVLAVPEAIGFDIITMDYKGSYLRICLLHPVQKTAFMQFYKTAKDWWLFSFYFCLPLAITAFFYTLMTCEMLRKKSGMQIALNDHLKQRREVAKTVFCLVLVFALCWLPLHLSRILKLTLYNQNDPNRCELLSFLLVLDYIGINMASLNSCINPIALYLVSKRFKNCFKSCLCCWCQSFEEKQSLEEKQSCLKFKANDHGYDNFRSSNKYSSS
metric-name: IC50 (nM)
Write down the numeric answer in nM and omit the unit.

Below, each entry is followed by its recorded IC50 result.
- compound: "COc1ccc([C@H]2[C@H](C(=O)O)[C@@H](c3ccc4c(c3)OCO4)CN2CC(=O)Nc2ccc(C)cc2C)cc1"
  IC50 / nM: 74
- compound: "CCc1cccc(CC)c1N(C)C(=O)CN1C[C@H](c2ccc3c(c2)OCO3)[C@@H](C(=O)O)[C@@H]1c1ccc(OC)cc1"
  IC50 / nM: 600
- compound: "CCc1cccc(CC)c1NC(=O)CN1C[C@H](c2ccc3c(c2)OCO3)[C@@H](C(=O)O)[C@@H]1c1ccc(OC(C)C)cc1"
  IC50 / nM: 6.9
- compound: "CCc1cccc(CC)c1NC(=O)CN1C[C@H](c2ccc3c(c2)OCO3)[C@@H](C(=O)O)[C@@H]1c1ccc(OCCOC)cc1 (stereo in doubt; 34)"
  IC50 / nM: 1.1
- compound: "COc1ccc([C@H]2[C@H](C(=O)O)[C@@H](c3ccc4c(c3)OCO4)CN2CC(=O)Nc2ccc(C)c(C)c2)cc1"
  IC50 / nM: 830

[in] Please look up its IC50: COc1ccc([C@H]2[C@H](C(=O)O)[C@@H](c3ccc4c(c3)OCO4)CN2CC(=O)Nc2c(C)cccc2C(C)C)cc1
[out] 20

Measured values drawn from ChEMBL document CHEMBL1132381 for this set.
